Field: Percent Effect. Provide a value for each of the compounds that follow.
System: Wolbachia pipientis
METHOD: Anti-Wolbachia Cell-Based Screen
Assay type: functional
Set-up: scale not given: in the data most compounds retested in dose-response had high values
MEASUREMENT_CONDITIONS: 5 µM
The whole screen tested about 48,000 compounds, of which about 13,000 (27%) showed an effect of 50% or more. The list shows a part of the results.
Answers are plain numbers, in %.

CC(=O)c1cc(C(=O)NC2(c3ccc(Br)cc3)CC2)n(C)c1 ... -0.634
Cc1cc(C(=O)NC2(c3ccc(Br)cc3)CC2)n(C)n1 ... 77.44
O=C(NCc1cccnc1)N1CCSCC1CCO (stereo unspecified) ... -15.06
Cc1cnc2n(c1=O)C(CC(=O)NCc1ccccc1Cl)CS2 (stereo unspecified) ... 121.9
Cc1cnc2n(c1=O)C(CC(=O)NCc1ccc(F)cc1)CS2 (stereo unspecified) ... 120.7

The compound identified as O=C(Cn1nc(-c2ccc(F)cc2)oc1=O)NCc1ccc(F)cc1 registered its Percent Effect at -3.011

----------
Test system: Wolbachia pipientis
METHOD: Anti-Wolbachia Cell-Based Screen
Type: functional
Set-up: scale not given: in the data most compounds retested in dose-response had high values
MEASUREMENT_CONDITIONS: 5 µM
Screen size: about 48,000 compounds; about 13,000 (27%) showed an effect of 50% or more. The list shows a part of the results.
Field: Percent Effect. Provide a value for each of the compounds that follow.
Give bare numbers, in %.

// worked examples, Percent Effect included
CC1CCCCN1Cc1nc(C2CC2)no1 (stereo unspecified) ... 23.82
N[C@H]1CN(C(=O)CCC(F)(F)F)C[C@@H]1c1ccccc1 ... 7.576
O=C(CC1CCCC1)N1CCCC1c1nc(O)cc(-c2ccccn2)n1 (stereo unspecified) ... -10.15
CC(C)(C)c1nc(CN2CCC(N3CCCCC3)CC2)no1 ... 3.179
N[C@H]1CN(C(=O)c2ccc3[nH]c(=O)c(=O)[nH]c3c2)C[C@@H]1c1ccccc1 ... 97.68
Cc1nc2cc(C(=O)N3C[C@@H](C(=O)O)[C@H](c4ccncc4)C3)ccc2[nH]1 ... -0.783

Hi! Can you tell me Percent Effect for each of these compounds?
1. Nc1nc(CCC(=O)N2C[C@H](c3ccccc3)[C@@H](N)C2)cs1
2. CC(C(=O)N1CCOCC1)S(=O)(=O)Cc1noc(C(C)(C)C)n1 (stereo unspecified)
3. CC1COCCN1Cc1nc(C(C)(C)C)no1 (stereo unspecified)
4. CC(C)c1noc(CS(=O)(=O)Cc2nc(C(C)C)no2)n1

Given back:
[-7.394, -4.281, 110.8, -3.73]

The compound identified as N[C@H]1CN(C(=O)CCc2ccccn2)C[C@@H]1c1ccccc1 registered its Percent Effect at 8.322

----------
Field: Percent Effect. Provide a value for each of the compounds that follow.
Test system: Wolbachia pipientis
METHOD: Anti-Wolbachia Cell-Based Screen
Format: functional
Set-up: scale not given: in the data most compounds retested in dose-response had high values
MEASUREMENT_CONDITIONS: 5 µM
The whole screen tested about 48,000 compounds, of which about 13,000 (27%) showed an effect of 50% or more. Some of the results follow.
Answers are plain numbers, in %.

// worked examples, Percent Effect included
CC(=O)N1CCO[C@@H]2CN(S(=O)(=O)c3cccs3)CC[C@@H]2C1 ... 114.4
CN1CCO[C@@H]2CN(S(=O)(=O)c3cccs3)CC[C@@H]2C1.O=C(O)C(F)(F)F ... 99.53

Hi! Can you tell me Percent Effect for each of these compounds?
1. COc1cccc2c1OCC(CNC(=O)CCn1cnnn1)C2 (stereo unspecified)
2. CCN1CCO[C@@H]2CN(S(=O)(=O)c3cccs3)CC[C@@H]2C1.O=C(O)C(F)(F)F
3. Cn1nc(C(=O)NC2CC(C)(C)NC(C)(C)C2)cc1NC(=O)C1CC1

Given back:
1. -3.423
2. 101.9
3. -0.3555
